Test: Toxicokinetics study, plasma concentration by LC-MS/MS after single i.v. bolus
Type: in vivo, rat
Details: rat, plasma, iv; 6.0 mg/kg single i.v. bolus; female Sprague Dawley rats; mean ± SE, n = 6; read-out: Vd (volume of distribution)
measured.property: Vd (L)
State just the number; it will be interpreted in L.

## Task # lookup: Vd of COc1ccc2nc(Cl)c(/C=[N+](\[O-])C(C)(C)C)cc2c1
## Result 1.66

###

Experiment: Toxicokinetics study, plasma concentration by LC-MS/MS after single i.v. bolus
Format: in vivo, rat
Conditions: rat, plasma, iv; 18 mg/kg single i.v. bolus; female Sprague Dawley rats; mean ± SE, n = 6; read-out: t1/2 (half-life) (converted)
measured.property: half-life (h)
State just the number; it will be interpreted in h.

## Task # lookup: half-life of COc1ccc2nc(Cl)c(/C=[N+](\[O-])C(C)(C)C)cc2c1
## Result 1.13

###

Experiment: Toxicokinetics study, plasma concentration by LC-MS/MS after single i.v. bolus
Type: in vivo, rat
Conditions: rat, plasma, iv; 6.0 mg/kg single i.v. bolus; female Sprague Dawley rats; mean ± SE, n = 6; read-out: kel (elimination constant) (converted)
measured.property: k el

## Task # lookup: k el of COc1ccc2nc(Cl)c(/C=[N+](\[O-])C(C)(C)C)cc2c1
## Result 0.000931 s⁻¹

###

Assay: Toxicokinetics study, plasma concentration by LC-MS/MS after single i.v. bolus
Format: in vivo, rat
Conditions: rat, plasma, iv; 6.0 mg/kg single i.v. bolus; female Sprague Dawley rats; mean ± SE, n = 6; read-out: Cl (clearance) (converted)
measured.property: clearance (mL/min)
State just the number; it will be interpreted in mL/min.

## Task # lookup: clearance of COc1ccc2nc(Cl)c(/C=[N+](\[O-])C(C)(C)C)cc2c1
## Result 56.7

###

Assay: Toxicokinetics study, plasma concentration by LC-MS/MS after single i.v. bolus
Type: in vivo, rat
Details: rat, iv; 2.0 mg/kg single i.v. bolus; female Sprague Dawley rats; plasma; mean ± SE, n = 6
measured.property: Cmax (ng/mL)
State just the number; it will be interpreted in ng/mL.

## Task # lookup: Cmax of COc1ccc2nc(Cl)c(/C=[N+](\[O-])C(C)(C)C)cc2c1
## Result 161

###

Experiment: Toxicokinetics study, plasma concentration by LC-MS/MS after single i.v. bolus
Format: in vivo, rat
Settings: rat, iv; 18 mg/kg single i.v. bolus; female Sprague Dawley rats; plasma; mean ± SE, n = 6
measured.property: Cmax (ng/mL)
State just the number; it will be interpreted in ng/mL.

## Task # lookup: Cmax of COc1ccc2nc(Cl)c(/C=[N+](\[O-])C(C)(C)C)cc2c1
## Result 2570

###

Test: Toxicokinetics study, plasma concentration by LC-MS/MS after single i.v. bolus
Format: in vivo, rat
Conditions: rat, iv; 18 mg/kg single i.v. bolus; female Sprague Dawley rats; plasma; mean ± SE, n = 6; read-out: AUC0–8h
measured.property: AUC(0-t) (ng·h/mL)
State just the number; it will be interpreted in ng·h/mL.

## Task # lookup: AUC(0-t) of COc1ccc2nc(Cl)c(/C=[N+](\[O-])C(C)(C)C)cc2c1
## Result 2960

###

Assay: Toxicokinetics study, plasma concentration by LC-MS/MS after single i.v. bolus
Type: in vivo, rat
Settings: rat, iv; 6.0 mg/kg single i.v. bolus; female Sprague Dawley rats; plasma; mean ± SE, n = 6; read-out: AUC0–8h
measured.property: AUC(0-t)

## Task # lookup: AUC(0-t) of COc1ccc2nc(Cl)c(/C=[N+](\[O-])C(C)(C)C)cc2c1 [QN23]
## Result 1.01 µg·h/mL
